target: Telomerase reverse transcriptase (Homo sapiens, UniProt O14746); assay: Inhibition of TERT transcriptional activity in human H1299 cells assessed SEAP activity at 100 uM incubated for 24 hrs by SEAP assay; format: cell-based; set-up: scale not given: the % may be the effect or the level left
Sequence (O14746 whole entry): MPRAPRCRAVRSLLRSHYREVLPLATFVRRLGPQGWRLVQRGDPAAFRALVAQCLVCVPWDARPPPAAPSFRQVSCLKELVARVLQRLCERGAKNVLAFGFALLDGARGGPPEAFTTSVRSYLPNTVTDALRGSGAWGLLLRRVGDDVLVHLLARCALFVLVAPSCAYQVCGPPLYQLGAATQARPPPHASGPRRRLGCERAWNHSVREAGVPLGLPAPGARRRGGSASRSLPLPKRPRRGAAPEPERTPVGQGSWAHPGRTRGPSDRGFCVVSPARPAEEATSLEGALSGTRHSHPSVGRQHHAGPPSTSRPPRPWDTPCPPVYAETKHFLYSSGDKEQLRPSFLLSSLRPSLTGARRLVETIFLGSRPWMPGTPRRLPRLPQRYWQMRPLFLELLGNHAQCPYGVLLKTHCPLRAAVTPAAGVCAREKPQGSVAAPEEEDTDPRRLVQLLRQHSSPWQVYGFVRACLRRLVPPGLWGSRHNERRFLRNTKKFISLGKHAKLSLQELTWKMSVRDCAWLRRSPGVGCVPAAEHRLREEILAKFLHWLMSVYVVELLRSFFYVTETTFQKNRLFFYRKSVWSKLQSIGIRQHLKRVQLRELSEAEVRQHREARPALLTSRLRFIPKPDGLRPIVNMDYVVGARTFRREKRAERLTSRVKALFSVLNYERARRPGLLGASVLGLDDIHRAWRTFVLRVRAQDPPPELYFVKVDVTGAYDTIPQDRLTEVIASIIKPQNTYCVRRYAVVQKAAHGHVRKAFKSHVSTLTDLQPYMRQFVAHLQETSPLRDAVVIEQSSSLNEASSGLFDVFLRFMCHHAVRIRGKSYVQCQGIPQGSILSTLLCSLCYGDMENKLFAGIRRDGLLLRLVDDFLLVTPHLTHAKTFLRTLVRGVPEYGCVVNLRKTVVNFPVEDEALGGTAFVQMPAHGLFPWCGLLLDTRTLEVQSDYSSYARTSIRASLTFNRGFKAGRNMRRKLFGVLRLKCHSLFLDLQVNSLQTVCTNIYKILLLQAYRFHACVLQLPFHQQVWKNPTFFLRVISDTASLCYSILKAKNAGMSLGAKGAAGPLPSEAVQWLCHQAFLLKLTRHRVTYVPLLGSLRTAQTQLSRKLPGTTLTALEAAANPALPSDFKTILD
Exam item: assign Met to entries whose Activity is below 2% and Not met to entries at or above 2%. Note that a value of exactly 2% receives Not met.

Examples with answers:
COc1cccc(CN(C)Cc2nc3ccc4c(c3[nH]2)C(=O)c2ccccc2C4=O)c1: Met
O=C1c2ccccc2C(=O)c2c1ccc1nc(CCN3CCN(c4ccccn4)CC3)[nH]c21: Met
CN1CCN(Cc2nc3ccc4c(c3[nH]2)C(=O)c2ccccc2C4=O)CC1: Not met

Req: Say whether its Activity is strictly beneath 2%. Entry: `O=C(CCCl)Nc1ccc2c(c1NC(=O)CCCl)C(=O)c1ccccc1C2=O`
Resp: Met

---

target: Telomerase reverse transcriptase (Homo sapiens); test: Inhibition of TERT activity in human H1299 cells homogenates incubated for 5 mins at 100 uM by TRAP assay; type: cell-free
The source made the active and inactive calls. The rule behind the calls is not given here.
I would appreciate it if you answered using one of these outcomes: t (active), f (inactive)

O=C1c2ccccc2C(=O)c2c1ccc1nc(CN3CCOCC3)[nH]c21: f
CN(C)Cc1nc2ccc3c(c2[nH]1)C(=O)c1ccccc1C3=O: f
O=C1c2ccccc2C(=O)c2c1ccc1nc(CNCc3cccc(C(F)(F)F)c3)[nH]c21: f
O=C1c2ccccc2C(=O)c2c1ccc1nc(CN3CCCCCC3)[nH]c21: f
O=C1c2ccccc2C(=O)c2c1ccc1nc(CCCl)[nH]c21: f
O=C1c2ccccc2C(=O)c2c1ccc1nc(CCN3CCN(Cc4ccccc4)CC3)[nH]c21: f
O=C(CCCl)Nc1ccc2c(c1NC(=O)CCCl)C(=O)c1ccccc1C2=O: f
O=C1c2ccccc2C(=O)c2c1ccc1nc(CCl)[nH]c21: f
O=C1c2ccccc2C(=O)c2c1ccc1nc(CN3CCCCC3)[nH]c21: f
O=C1c2ccccc2C(=O)c2c1ccc1nc(CN3CCC4(CC3)OCCO4)[nH]c21: f

Req: Any idea what this test logged for `O=C1c2ccccc2C(=O)c2c1ccc1nc(CNCc3ccccc3C(F)(F)F)[nH]c21` ?
Resp: f

Req: Further, for `CCCN(C)Cc1nc2ccc3c(c2[nH]1)C(=O)c1ccccc1C3=O` ?
Resp: f

Req: Further, for `CN(Cc1nc2ccc3c(c2[nH]1)C(=O)c1ccccc1C3=O)CC1OCCO1` ?
Resp: f

Req: Further, for `CCN(CC)Cc1nc2ccc3c(c2[nH]1)C(=O)c1ccccc1C3=O` ?
Resp: f

Req: Further, for `CN(CCc1ccccn1)Cc1nc2ccc3c(c2[nH]1)C(=O)c1ccccc1C3=O` ?
Resp: f

Req: Further, for `O=C1c2ccccc2C(=O)c2c1ccc1nc(CN3CCSC3)[nH]c21` ?
Resp: f

Req: Further, for `CCN(C)Cc1nc2ccc3c(c2[nH]1)C(=O)c1ccccc1C3=O` ?
Resp: f

Req: Further, for `O=C1c2ccccc2C(=O)c2c1ccc1nc(CN3CCN(c4ccccn4)CC3)[nH]c21` ?
Resp: f

---

molecular target: Telomerase reverse transcriptase (Homo sapiens); test: Inhibition of TERT transcriptional activity in human H1299 cells assessed SEAP activity at 1 uM incubated for 24 hrs by SEAP assay; format: cell-based; design: scale not given: the % may be the effect or the level left
Each entry below lists one item and its recorded Activity value.
Lab book: enter the figure in %, no units written.

Nc1ccc2c(c1N)C(=O)c1ccccc1C2=O: 99
O=C1c2ccccc2C(=O)c2c1ccc1nc(CN3CCC4(CC3)OCCO4)[nH]c21: 97

Req: Report Activity for `O=C1c2ccccc2C(=O)c2c1ccc1nc(CN3CCCCCC3)[nH]c21` please.
Resp: 107

Req: Further, for `O=C1c2ccccc2C(=O)c2c1ccc1nc(CN3CCN(Cc4ccccc4)CC3)[nH]c21` ?
Resp: 98

Req: Further, for `CCN(C)Cc1nc2ccc3c(c2[nH]1)C(=O)c1ccccc1C3=O` ?
Resp: 97

Req: Further, for `O=C1c2ccccc2C(=O)c2c1ccc1nc(CCN3CCN(Cc4ccccc4)CC3)[nH]c21` ?
Resp: 73

---

molecular target: Telomerase reverse transcriptase (Homo sapiens, UniProt O14746); test: Inhibition of TERT transcriptional activity in human H1299 cells assessed SEAP activity at 1 uM incubated for 24 hrs by SEAP assay; format: cell-based; parameters: scale not given: the % may be the effect or the level left
READOUT_NAME: Activity

CCN(CC)Cc1nc2ccc3c(c2[nH]1)C(=O)c1ccccc1C3=O: 91%

Now examine the next entry.
Req: Report Activity for `CN(Cc1nc2ccc3c(c2[nH]1)C(=O)c1ccccc1C3=O)CC1OCCO1` please.
Resp: 90%

---

target: Telomerase reverse transcriptase (Homo sapiens, UniProt O14746); test: Inhibition of TERT transcriptional activity in human H1299 cells assessed SEAP activity at 100 uM incubated for 24 hrs by SEAP assay; format: cell-based; parameters: scale not given: the % may be the effect or the level left
Exam item: assign MET to entries whose Activity is below 3% and NOT MET to entries at or above 3%. Note that a value of exactly 3% receives NOT MET.

Examples with answers:
O=C1c2ccccc2C(=O)c2c1ccc1nc(CN3CCN(c4ccccc4)CC3)[nH]c21: NOT MET
CN(CCc1ccccn1)Cc1nc2ccc3c(c2[nH]1)C(=O)c1ccccc1C3=O: MET
CCN1CCN(Cc2nc3ccc4c(c3[nH]2)C(=O)c2ccccc2C4=O)CC1: MET
O=C1c2ccccc2C(=O)c2c1ccc1nc(CCN3CCN(Cc4ccccc4)CC3)[nH]c21: MET
O=C1c2ccccc2C(=O)c2c1ccc1nc(CN3CCOCC3)[nH]c21: NOT MET

Kindly consider the entry below.
Req: Say whether its Activity is strictly beneath 3%. Entry: `CC1CCN(Cc2nc3ccc4c(c3[nH]2)C(=O)c2ccccc2C4=O)CC1`
Resp: NOT MET

---

molecular target: Telomerase reverse transcriptase (Homo sapiens); test: Inhibition of TERT activity in human H1299 cells homogenates incubated for 5 mins at 100 uM by TRAP assay; type: cell-free
Active and inactive are the calls of the source. The calls are words filed in the database; no cut-off is given here.
I would appreciate it if you answered using one of these outcomes: 1.0 (active), 0.0 (inactive)

Examples with answers:
O=C1c2ccccc2C(=O)c2c1ccc1nc(CN3CCN(c4ncccn4)CC3)[nH]c21: 0.0
O=C1c2ccccc2C(=O)c2c1ccc1nc(CCN3CCN(c4ccccn4)CC3)[nH]c21: 0.0
CN1CCN(Cc2nc3ccc4c(c3[nH]2)C(=O)c2ccccc2C4=O)CC1: 1.0

Req: Any idea what this test logged for `O=C1c2ccccc2C(=O)c2c1ccc1nc(CCN3CCN(c4ncccn4)CC3)[nH]c21` ?
Resp: 0.0

---

target: Telomerase reverse transcriptase (Homo sapiens, UniProt O14746); test: Inhibition of TERT transcriptional activity in human H1299 cells assessed SEAP activity at 1 uM incubated for 24 hrs by SEAP assay; type: cell-based; set-up: scale not given: the % may be the effect or the level left
READOUT_NAME: Activity (%)
Lab book: enter the figure in %, no units written.

Would you please look over these solved cases?
O=C1c2ccccc2C(=O)c2c1ccc1nc(CN3CCCCC3)[nH]c21: 76
COc1cccc(CN(C)Cc2nc3ccc4c(c3[nH]2)C(=O)c2ccccc2C4=O)c1: 105
O=C(CCCl)Nc1ccc2c(c1NC(=O)CCCl)C(=O)c1ccccc1C2=O: 87

Now examine the next entry.
Req: Telomerase reverse transcriptase (Homo sapiens, UniProt O14746) / Activity / `O=C1c2ccccc2C(=O)c2c1ccc1nc(CN3CCSCC3)[nH]c21` : value?
Resp: 115

---

molecular target: Telomerase reverse transcriptase (Homo sapiens); assay: Inhibition of TERT transcriptional activity in human H1299 cells assessed SEAP activity at 1 uM incubated for 24 hrs by SEAP assay; assay type: cell-based; design: scale not given: the % may be the effect or the level left
Each entry below lists one item and its recorded Activity value.
Lab book: enter the figure in %, no units written.

Would you please look over these solved cases?
O=C1c2ccccc2C(=O)c2c1ccc1nc(CN3CCSC3)[nH]c21: 106
O=C1c2ccccc2C(=O)c2c1ccc1nc(CCN3CCN(c4ccccc4)CC3)[nH]c21: 103
CCCN(C)Cc1nc2ccc3c(c2[nH]1)C(=O)c1ccccc1C3=O: 96
O=C1c2ccccc2C(=O)c2c1ccc1nc(CNCc3ccccc3C(F)(F)F)[nH]c21: 87
O=C1c2ccccc2C(=O)c2c1ccc1nc(CNCc3ccc(C(F)(F)F)cc3)[nH]c21: 52
CC1CCN(Cc2nc3ccc4c(c3[nH]2)C(=O)c2ccccc2C4=O)CC1: 102

Req: Report Activity for `CCN1CCN(Cc2nc3ccc4c(c3[nH]2)C(=O)c2ccccc2C4=O)CC1` please.
Resp: 92

Req: Further, for `CN(C)Cc1nc2ccc3c(c2[nH]1)C(=O)c1ccccc1C3=O` ?
Resp: 84

Req: Further, for `O=C1c2ccccc2C(=O)c2c1ccc1nc(CCCl)[nH]c21` ?
Resp: 95

Req: Further, for `O=C1c2ccccc2C(=O)c2c1ccc1nc(CN3CCN(c4ccccn4)CC3)[nH]c21` ?
Resp: 91

Req: Further, for `O=C1c2ccccc2C(=O)c2c1ccc1nc(CN3CCN(c4ccccc4F)CC3)[nH]c21` ?
Resp: 103
